target: NR2A (Homo sapiens, UniProt Q12879); construct: host or cells: HEK293 or CHO; experiment: Ion channel panel (IonWorks Barracuda): NR2A; type: cell-based; settings: peptide at 20 μM; 100% = no change, <100% = inhibition
Sequence (Q12879 23-1464, other chains not shown): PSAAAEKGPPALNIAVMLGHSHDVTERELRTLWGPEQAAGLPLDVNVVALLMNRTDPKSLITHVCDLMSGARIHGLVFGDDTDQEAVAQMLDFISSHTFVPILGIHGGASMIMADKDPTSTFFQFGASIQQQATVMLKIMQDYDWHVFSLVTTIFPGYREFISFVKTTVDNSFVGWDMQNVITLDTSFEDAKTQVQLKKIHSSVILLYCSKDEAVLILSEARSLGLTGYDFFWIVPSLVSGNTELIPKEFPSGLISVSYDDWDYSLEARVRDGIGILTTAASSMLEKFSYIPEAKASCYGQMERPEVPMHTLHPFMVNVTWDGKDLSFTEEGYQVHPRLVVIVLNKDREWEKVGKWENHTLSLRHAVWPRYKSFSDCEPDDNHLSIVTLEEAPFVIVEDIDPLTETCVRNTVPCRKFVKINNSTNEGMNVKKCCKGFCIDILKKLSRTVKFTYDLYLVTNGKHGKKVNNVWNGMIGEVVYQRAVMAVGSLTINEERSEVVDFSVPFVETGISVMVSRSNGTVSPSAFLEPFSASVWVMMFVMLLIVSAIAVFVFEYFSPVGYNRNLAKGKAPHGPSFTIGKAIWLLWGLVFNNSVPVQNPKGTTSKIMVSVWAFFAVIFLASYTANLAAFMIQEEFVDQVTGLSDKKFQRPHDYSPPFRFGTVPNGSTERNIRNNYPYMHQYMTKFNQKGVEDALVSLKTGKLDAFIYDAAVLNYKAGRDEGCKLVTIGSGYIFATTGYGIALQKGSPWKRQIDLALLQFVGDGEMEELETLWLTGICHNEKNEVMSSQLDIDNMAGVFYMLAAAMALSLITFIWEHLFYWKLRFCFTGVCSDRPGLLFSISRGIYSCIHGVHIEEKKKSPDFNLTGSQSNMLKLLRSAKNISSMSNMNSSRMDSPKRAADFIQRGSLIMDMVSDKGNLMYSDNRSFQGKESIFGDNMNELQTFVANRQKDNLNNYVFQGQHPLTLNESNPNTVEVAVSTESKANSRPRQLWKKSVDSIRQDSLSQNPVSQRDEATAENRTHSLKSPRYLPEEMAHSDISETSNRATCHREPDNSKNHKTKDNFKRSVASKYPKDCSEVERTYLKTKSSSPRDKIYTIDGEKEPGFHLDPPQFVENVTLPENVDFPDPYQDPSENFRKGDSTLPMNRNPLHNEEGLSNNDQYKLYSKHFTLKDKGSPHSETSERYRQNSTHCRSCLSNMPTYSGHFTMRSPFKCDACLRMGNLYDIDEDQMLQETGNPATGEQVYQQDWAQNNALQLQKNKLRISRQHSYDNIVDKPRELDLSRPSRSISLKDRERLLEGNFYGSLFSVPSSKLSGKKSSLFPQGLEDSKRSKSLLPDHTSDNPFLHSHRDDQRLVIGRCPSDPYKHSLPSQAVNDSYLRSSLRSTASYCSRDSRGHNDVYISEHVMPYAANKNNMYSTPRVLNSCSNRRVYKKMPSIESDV
Readout label: Activity of NR2A with peptide (percentage of the reference compound) (%)
Your answer should be a plain number; it is taken to be in %.

# Substance, Endpoint unit, Observed
data = [
    ("13 (GSQKILSNRCNNSSECIPHCIRIFGTRAAKCINRKCYCYP) [compound 13]", "%", 108),
]

Task: Please give measured Activity of NR2A with peptide (percentage of the reference compound) of the following entry: 27 (GSACQFWSCNSSCISRGYRQGYCWGIQYKYCQCQ) [compound 27]
Result: 88

Task: Please give measured Activity of NR2A with peptide (percentage of the reference compound) of the following entry: 5 (GSGVPINVKCRGSRDCLDPCKKAGMRFGKCINSKCHCTP) [compound 5]
Result: 86

Task: Please give measured Activity of NR2A with peptide (percentage of the reference compound) of the following entry: 30 (GSQVSTNKKCSNTSQCYKTCEKVVGVAAGKCMNGKCICYP) [compound 30]
Result: 98
